Values compiled from patent US11873298B2.

- measured_target: SCD1 (Homo sapiens, UniProt O00767)
- Construct: host or cells: S. cerevisiae ole1Δ strain (W303 pdr1Δ pdr3Δ background), plasmid pRS316 with TDH3 promoter and CYC1 terminator
- Sequence (O00767 1-359): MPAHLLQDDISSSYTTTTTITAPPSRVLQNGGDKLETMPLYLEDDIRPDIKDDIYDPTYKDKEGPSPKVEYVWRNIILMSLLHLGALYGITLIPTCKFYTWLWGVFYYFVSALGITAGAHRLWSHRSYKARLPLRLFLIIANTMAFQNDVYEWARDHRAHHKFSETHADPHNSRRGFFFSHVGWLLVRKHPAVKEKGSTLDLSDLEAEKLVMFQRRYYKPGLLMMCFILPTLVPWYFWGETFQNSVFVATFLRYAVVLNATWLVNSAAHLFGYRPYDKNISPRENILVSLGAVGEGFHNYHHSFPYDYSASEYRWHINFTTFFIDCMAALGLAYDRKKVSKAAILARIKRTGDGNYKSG
- test_details: Growth inhibition of humanized yeast strain expressing SCD1 as sole desaturase
- Assay type: cell-based
- reported_conditions: humanized yeast strain expressing SCD1
I'd appreciate it if you could supply IC50 values for the items below.

(Q) Which measured IC50 belongs to COc1ccc(-c2noc(C3CCN(C(=O)CNC(c4ccccc4)C(F)(F)F)CC3)n2)cc1OC (centres unmarked) [Compound 34] , tested on SCD1 (Homo sapiens, UniProt O00767)?
(A) > 45 µM

(Q) Now the same for Cc1nn(C)c2cc(-c3noc(C4CCN(C(=O)CNC(=O)c5ccccc5)CC4)n3)cnc12 [Compound 137]
(A) > 45 µM

(Q) Now the same for O=C(NCC(=O)N1CCC(c2nc(-c3ccccn3)no2)CC1)c1ccccc1 [compound 78]
(A) > 45 µM

(Q) Now the same for Cc1nn(C)c2cc(-c3noc(C4CCN(C(=O)CNC(=O)c5ccncc5)CC4)n3)ccc12 [Compound 198]
(A) > 45 µM

(Q) Now the same for Cc1nn(C(C)C)c2cc(-c3noc(C4CCN(C(=O)CNC(=O)c5ccccc5)CC4)n3)ccc12 [Compound 281]
(A) ≥ 45 µM

(Q) Now the same for CCOc1ccc(-c2noc(C3CCN(C(=O)CNC(=O)c4ccccc4)CC3)n2)cc1Br [compound 99]
(A) > 45 µM

(Q) Now the same for COc1ccc(-c2nc(C3CCN(C(=O)CNC(=O)c4ccccc4)CC3)no2)cc1OC [Compound 36]
(A) 30 µM

(Q) Now the same for N#CCC1CN(c2noc(C3CCN(C(=O)C4CC(=O)N(c5ccccc5)C4)CC3)n2)C1 (centres unmarked) [Compound 242]
(A) > 45 µM
